experimentalSetup: in DMF, 298.15 K
experimentalReadout: solubility (mole fraction)
Write no unit; give the number alone.

Field solubility (mole fraction) (entry `NC(=O)c1ccc([N+](=O)[O-])cc1` ) reads 0.0576

* * *

experimentalSetup: in water, 318.15 K
experimentalReadout: solubility (mole fraction)
Write no unit; give the number alone.

Field solubility (mole fraction) (entry `NC(=O)c1ccc([N+](=O)[O-])cc1` ) reads 0.00137

* * *

experimentalSetup: in isobutanol, 293.15 K
experimentalReadout: solubility (mole fraction)
Write no unit; give the number alone.

Field solubility (mole fraction) (entry `NC(=O)c1ccc([N+](=O)[O-])cc1` ) reads 0.00119
